B1: TPR t1 (parent)
chain: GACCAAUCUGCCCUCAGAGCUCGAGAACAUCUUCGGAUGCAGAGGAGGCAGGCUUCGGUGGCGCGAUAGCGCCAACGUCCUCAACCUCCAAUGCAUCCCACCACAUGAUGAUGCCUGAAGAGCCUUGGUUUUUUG

variants of: B1; assay: polymerase ribozyme fitness, log enrichment relative to wild type (log ratio); higher = more active; in vitro selection for triplet polymerase activity
Consider the following variants; for each one, report its polymerase ribozyme fitness (log ratio).
Give bare numbers.

GACCAAUCUGCCCUCAGAGCUCGAGAACAUCUUCGGAUGCAGAGGAUGCAGGCUUCGGUGGCGCGAUAGCGCCAACGUCCUCAACCUCCAAUGCAUCCCACCACAUGAUGAUGCCUGAAGAGCCUUGGUUUUUUC [G47U G135C] :: -1.39
GACCAAUCUGCUCUCAGAGCUCGAGAACAUCUUCGGAUGCAGAGGAGGCAGGCUUCGGUGGCGCGAUAGCGCCAAUGUCCUCAACCUCCAAUGCAUCCCACCACAUGAUGAUGCCUGAAGAGCCUUGGUUUUUUG [C12U C76U] :: -0.504
GACCAAUCUGCCCUCAGAGCUCGAGAACAUCUUCGGAUGCAGAGGAGGCCGGCUUCGGUGGAGCGAUAGCGCCAACGUUCUCAACCUCCAAUGCAUCCCACCACAUGAUGAUGCCUGAAGAGCCUUGGUUUUUUG [A50C C62A C79U] :: -1.8
GACCAAUCUGCCCUCAGAGCUCGAGAAGAUCUUCGGAUGCAGAGGAGGCAGGCUUCGGUGGGGCGAUAGCGCCAACGUCCUCAACCUCCAAUGCAUCCCACCACAUGAUGAUGCCUGAAGAGCCUUGGUUUUUUG [C28G C62G] :: -4.58

Each variant below has a reported value. Please supply its polymerase ribozyme fitness (log ratio).
1. GACCAAUCUGCCCUCAGAGCUCGAGAACAUCUUCGGAUGCAGAGGAGGCAGCCUUCGGUGGCGCGAUAGCGCCAACGUCCUCAACCUCCAAUGCAUCCCACCACAUGAUGAUGCAUGUAGAGCCUUGGUUAUUUG [G52C C115A A118U U131A]
2. GACGAAUCUGCCCUCAGAGCUCGAGAACAUCUUCGGAUGCAGAGGAGGCAGGCUUCGGUGGCGCGAUAGCGCCAACGUCCUCAACCUCCAAUGCAUCCCACCACAUGAUGCUGCCUGAAGAGCCUUGGUUUUUUG [C4G A111C]
3. GACCAAUCUGCCCUCAGAGCUCGAGAACAUCUUCGGAUGCAGAGGAGGCAGGCUUUGGUGGCGCGAUAGCGCCAACGCCCUCAACCACCAAUGCAUCCCACCACAUGAUGAUGCCUGAAGAGCCUUGGUUUUUUG [C56U U78C U87A]
4. GACCAAUCUGCCCUCAGAGCUCGAGAACAUCUUCGGAUGCAGGGGAGGCUGGCUUCGGUGGAGCGAUAGCGCCAACGUCCUCAACCUCCGAUGCAUCCCACCACAUGAUGAUGCCUGAAGAGCCUUGGUUAUUUG [A43G A50U C62A A90G U131A]
5. GACCAAUCUGCCCUCAGAGCUCGAGAACAUCUUCGGAUGCAGAGGAGGCAGGCUUCGGUGGCGCGAUAGCGCCAACGUCCUCAACAUCCAAUGCAUCCCACCACAUGAUGAUGCCUGAAGAGCCUUGGUUUCAUG [C86A U132C U133A]

1. -2.68
2. -0.384
3. 0.212
4. -5.99
5. -1.36

Each variant below has a reported value. Please supply its polymerase ribozyme fitness (log ratio).
1. GACCAAUCUGCCCACAGAGCUCGAGAACAUCUUCGGAUGCAGAGGAGGCAGGCUUCGGUGGCGCGAUAGCGCCAACGUCCUCAACCUCCAAUGCAUCCCACCACAUGAUGAUGCCUGAAGAGCCUUGGUUUUUUG [U14A]
2. GACCAAUCGGCCCUCAGAGCUCGAGAACAUCUUCGGAUGUAGAGUAGGCAGGCUUCGGUGGCGCGAUAGCGCCAACGUCCUCAACCUCCAAUGCAUCCCACCACAUGAUGAUGCCUGAAGAGCCUUGGCUUUUUA [U9G C40U G45U U129C G135A]
3. GACCAAUCUGCCCUCAGAGCUCGAGAACAUCUUCGGAUGCAGAGGUGGCAGGCUUCGGUGGCGCGAUAGCGCCAACGUCCUCAACCUCCAAUGCAUCCCACCACAUGAUGAUGCCUGAAGAGCCUUGUUUUUUUG [A46U G128U]
4. GACCAAUCUGCCCUCAGAGCUCGAGAACAUCUUCGGAUGCAGAGGGGGCAGGCUUCGGUGGCGCGAUAGCGCGAACGUCCUUAACCUCCAAUACAUCCCACCAAAUGAUGAUGCCUGAAGAGCCUUGGUUUUUUG [A46G C73G C82U G93A C104A]
5. GACCAAUCUGCCCUCAGAGCUCGAGAACAUCUUCGGAUGCAGAGGAGGCAGGCCUCGGUGGCGCGAUAGCGCCAACGGCCUCAACCUCCAAUGCAUCCCACCACAUGAUGAUGCCUUAAGAGCCUUGGUUUUUUG [U54C U78G G117U]

[-1.85, -3.12, -3.23, -4.85, -3.85]

Data credit: the RNAGym collection of RNA variant scans (doi:10.1073/pnas.2313332121)
